test system: UACC-62 melanoma; assay: NCI-60 one-dose screen, 48 h (100 = growth as untreated, 0 = no growth, -100 = all killed); conditions: 10 µM unless noted
About 83,000 compounds went through this panel and 20% of them were active in at least one assay; those are over-represented in the sample as a whole.
Each record is given MET if its reported growth is strictly below 80%. Records at or above 80% are given NOT MET.

*Q* Answer whether the compound CC1CCCN(CCCCOc2ccc(-c3ccc(C#N)cc3)cc2)C1 (stereo unspecified) has growth strictly less than 80%
*A* NOT MET

*Q* Answer whether the compound `Clc1cc2nc(-c3ccccc3)c(-c3ccccc3)nc2cc1Cl` has growth strictly less than 80%
*A* NOT MET

*Q* Answer whether the compound `CC(=O)Cc1ccccn1` has growth strictly less than 80%
*A* NOT MET

*Q* Answer whether the compound `CN(C)CCNC(=O)n1cc(-c2ccncc2)c(-c2cc(O)cc(Cl)c2)n1` has growth strictly less than 80%
*A* MET

###

system: SF-268 CNS; test: NCI-60 one-dose screen, 48 h; details: 10 µM unless noted
About 83,000 compounds went through this panel and 20% of them were active in at least one assay; those are over-represented in the sample as a whole. Activity calls are given as the source filed them. How the source made its calls: active means growth percent below 10; inactive means the rest.
Write down one outcome, taken from true (1) = active, false (0) = inactive

*Q* Which outcome was assigned to CC(CN1CCN(CC(C)Nc2ccnc3cc(Cl)ccc23)CC1)Nc1ccnc2cc(Cl)ccc12 (stereo not drawn) in this test?
*A* false (0)

*Q* Which outcome was assigned to `CCCNCCC(C)=O` in this test?
*A* false (0)

*Q* Which outcome was assigned to `O=C(CC(=O)c1cccc(Cl)c1)c1cccc(Cl)c1` in this test?
*A* false (0)

*Q* Which outcome was assigned to `O=C(Nc1cccc(N=Cc2c(O)ccc3ccccc23)c1)c1ccccc1` in this test?
*A* false (0)

*Q* Which outcome was assigned to `CCN(CC)CC(=O)Nc1c(C)ccc(N)c1C` in this test?
*A* false (0)

*Q* Which outcome was assigned to CCN1C(=O)N(CC)C2C1NN=c1s/c(=C\c3ccc(Br)cc3)c(=O)n12 (stereo not drawn) in this test?
*A* false (0)

*Q* Which outcome was assigned to `O=C(N/N=C/c1ccc([N+](=O)[O-])cc1)c1ccccc1Nc1ccnc(C(F)(F)F)c1` in this test?
*A* false (0)

*Q* Which outcome was assigned to `Cn1c(=O)c2c(nc(N/N=C/c3ccccc3Cl)n2C)n(C)c1=O` in this test?
*A* false (0)

*Q* Which outcome was assigned to `CCN(CCC#N)c1ccccc1` in this test?
*A* false (0)

*Q* Which outcome was assigned to O=C1OCC2=C1C(c1ccccc1)c1cc3c(cc1N2CCO)OCO3 (stereo not drawn) in this test?
*A* false (0)

*Q* Which outcome was assigned to CCOC(=O)C1C(=O)C=C(c2ccccc2)CC1c1sc(N(C)Cc2ccccc2)nc1Cl (stereo not drawn) in this test?
*A* false (0)

*Q* Which outcome was assigned to `CCOC(=O)c1ccc2c(c1)[n+](=O)c(C(=O)c1ccc3ccccc3c1)c(C(F)(F)F)n2[O-]` in this test?
*A* true (1)

*Q* Which outcome was assigned to `Nc1cc(C(=O)O)cc(C(=O)O)c1` in this test?
*A* false (0)

*Q* Which outcome was assigned to `Oc1ccc(-c2nc3ccccc3s2)cc1CN(Cc1ccccn1)Cc1ccccn1` in this test?
*A* false (0)

*Q* Which outcome was assigned to CC(=O)N1N=C(C2C(=O)N(C)C(=O)N(C)C2=O)CC1c1ccccc1C(=O)O (stereo not drawn) in this test?
*A* false (0)

*Q* Which outcome was assigned to CC(=O)OC[C@H]1O[C@@H](n2c(=O)cc(N)[nH]c2=O)C(OC(C)=O)[C@@H]1OC(C)=O (stereo partly drawn) in this test?
*A* false (0)

*Q* Which outcome was assigned to `Fc1cc(-c2cnc3nonc3n2)c(Cl)cc1Cl` in this test?
*A* false (0)

*Q* Which outcome was assigned to `CC(=O)Oc1c(Cl)c(Cl)c(Cl)c(Cl)c1Cl` in this test?
*A* false (0)

*Q* Which outcome was assigned to `O=C(CCCN1CCC(O)(c2ccc(Br)cc2)CC1)c1ccc(F)cc1` in this test?
*A* false (0)

*Q* Which outcome was assigned to `CCOCCNc1ccc(S(=O)(=O)c2ccc(N)cc2)cc1N` in this test?
*A* false (0)

*Q* Which outcome was assigned to `O=C(O)CSc1ccc(NCc2oc(CO)cc(=O)c2O)cc1` in this test?
*A* false (0)

*Q* Which outcome was assigned to `O/N=C1\c2ccccc2-c2ccc(Br)cc21` in this test?
*A* false (0)

*Q* Which outcome was assigned to `Cc1ccccc1NC(=O)c1sc2nc3c(cc2c1N)C(=O)CCC3` in this test?
*A* false (0)

*Q* Which outcome was assigned to `CSc1ccc(/C=C2\C=C(CC(=O)NCc3ccc(C(=O)c4ccccc4)cc3)c3cc(F)ccc32)cc1` in this test?
*A* true (1)

*Q* Which outcome was assigned to CNC(=O)OC1C(O[C@H]2C[C@H]3[C@@H]4CC=C5C[C@@H](O)CC[C@]5(C)[C@H]4CC[C@]3(C)[C@H]2[C@H](C)C(=O)CCC(C)C)OCC(O)C1OC1OCC(O)C(O)C1OC(=O)c1ccc(OC)cc1 (stereo partly drawn) in this test?
*A* true (1)

*Q* Which outcome was assigned to `COc1ccc(CNc2c3ccccc3nc3ccc(OC)cc23)cc1` in this test?
*A* false (0)

*Q* Which outcome was assigned to COc1cc(NCCC2CCCCN2)c2ncccc2c1OC (stereo not drawn) in this test?
*A* false (0)

*Q* Which outcome was assigned to `CCN(CC)c1ccc(/C=N/NC(=O)c2ccc(S(C)(=O)=O)cc2)c(O)c1` in this test?
*A* false (0)

*Q* Which outcome was assigned to `O=[N+]([O-])c1ccc(N/N=C/c2ccccc2O)nc1` in this test?
*A* false (0)

*Q* Which outcome was assigned to `O=c1c2cc(Br)cc(Br)c2nc(-c2ccc(Cl)cc2)n1/N=C\c1ccccc1F` in this test?
*A* false (0)

*Q* Which outcome was assigned to `COc1cccc(N2CCN(c3ncnc4cc[nH]c34)CC2)c1` in this test?
*A* false (0)

*Q* Which outcome was assigned to `O=C(C(=O)N1CCCC1)c1cn(CCCn2cc(C(=O)C(=O)N3CCCC3)c3cc(Br)ccc32)c2ccc(Br)cc12` in this test?
*A* false (0)

*Q* Which outcome was assigned to `COc1ccc(-n2c(COc3ccc(F)cc3)n[nH]c2=S)cc1` in this test?
*A* false (0)

*Q* Which outcome was assigned to `COc1cnc2c(c1)C(=O)c1c-2n(CCCN2CCNCC2)c(=O)c2cc(Cl)ccc12` in this test?
*A* true (1)

*Q* Which outcome was assigned to `Cn1cnc([N+](=O)[O-])c1S(=O)(=O)Oc1ccccc1` in this test?
*A* false (0)

*Q* Which outcome was assigned to `NC(=O)N/N=C\c1ccc([N+](=O)[O-])o1` in this test?
*A* false (0)

*Q* Which outcome was assigned to `N#CCCn1cnc2c(N)ncnc21` in this test?
*A* false (0)

*Q* Which outcome was assigned to `CN1CCC2(CC1)N=C(SCC(=O)Nc1cnc3ccccc3c1)C(c1ccc(Br)cc1)=N2` in this test?
*A* false (0)

*Q* Which outcome was assigned to `COc1ccc2c(c1)C1=NN(C(=O)CO)[C@H](c3ccc(OC(F)(F)F)cc3)[C@@H]1CC2` in this test?
*A* false (0)

*Q* Which outcome was assigned to `COc1ccc2[nH]cc(C3(c4c[nH]c5ccc(OC)cc45)C(=O)Nc4ccc(F)cc43)c2c1` in this test?
*A* false (0)

*Q* Which outcome was assigned to `Cc1ccccc1Nc1n[nH]c(Cc2ccccc2)n1` in this test?
*A* false (0)

*Q* Which outcome was assigned to O=C(O)C(CCc1ccccc1)NCc1ccccc1 (stereo not drawn) in this test?
*A* false (0)

*Q* Which outcome was assigned to `COc1cc2c(=O)n(CCCN(C)C)c3c4cc[nH]c4ncc3c2cc1OC` in this test?
*A* false (0)
